Form field: log10(CC50) (one value per entry).
# Tested on: A549
# experiment_notes: cells
# Type: cell-based
# details: Homo sapiens, A549, 48 h, read-out: LC50, A549, 48 hours exposure, SRB
The common logarithm of CC50 in nM is what is listed.

Sure, the documented log10(CC50) for COc1c(C)cc2c(c1O)[C@@H]1C3[C@@H]4SC[C@]5(NCCc6c5[nH]c5ccc(OCc7ccccc7)cc65)C(=O)COC[C@@H](c5c6c(c(C)c(OC(C)=O)c54)OCO6)N3[C@@H](O)[C@H](C2)N1C (some centres unmarked) [Compound 29] is 1.97

Sure, the documented log10(CC50) for COc1c(C)cc2c(c1O)[C@@H]1C3[C@@H]4SC[C@]5(NCCc6c5[nH]c5c(OCc7ccccc7)cccc65)C(=O)COC[C@@H](c5c6c(c(C)c(OC(C)=O)c54)OCO6)N3[C@@H](O)[C@H](C2)N1C (some centres unmarked) [Compound 28] is 1.54

Sure, the documented log10(CC50) for COc1c(C)cc2c(c1O)[C@@H]1C3[C@@H]4SC[C@]5(C(=O)COC[C@@H](c6c7c(c(C)c(OC(C)=O)c64)OCO7)N3[C@@H](O)[C@H](C2)N1C)c1[nH]c2ccc(O)cc2c1CCN5C (some centres unmarked) [Compound 33] is 0.71

Sure, the documented log10(CC50) for COc1ccc2c3c([nH]c2c1)[C@@]1(CS[C@@H]2c4c(OC(C)=O)c(C)c5c(c4[C@H](COCC1=O)N1C2[C@H]2c4c(cc(C)c(OC)c4O)C[C@@H]([C@@H]1O)N2C)OCO5)NCC3 (some centres unmarked) [Compound 34] is 1.95

Sure, the documented log10(CC50) for COc1c(C)cc2c(c1O)[C@@H]1C3[C@@H]4SC[C@]5(NCCc6c5[nH]c5ccc(O)cc65)C(=O)COC[C@@H](c5c6c(c(C)c(OC(C)=O)c54)OCO6)N3[C@@H](O)[C@H](C2)N1C (some centres unmarked) [Compound 31] is 1.59

Values from patent US7763615B2
